meta.source: patent US20230302150A1

# Target System: hTLR7 (Homo sapiens, UniProt Q9NYK1)
# Construct: expressed in transfected cells; host or cells: HEK-Blue hTLR7 reporter cell line
# Sequence (Q9NYK1 27-1049): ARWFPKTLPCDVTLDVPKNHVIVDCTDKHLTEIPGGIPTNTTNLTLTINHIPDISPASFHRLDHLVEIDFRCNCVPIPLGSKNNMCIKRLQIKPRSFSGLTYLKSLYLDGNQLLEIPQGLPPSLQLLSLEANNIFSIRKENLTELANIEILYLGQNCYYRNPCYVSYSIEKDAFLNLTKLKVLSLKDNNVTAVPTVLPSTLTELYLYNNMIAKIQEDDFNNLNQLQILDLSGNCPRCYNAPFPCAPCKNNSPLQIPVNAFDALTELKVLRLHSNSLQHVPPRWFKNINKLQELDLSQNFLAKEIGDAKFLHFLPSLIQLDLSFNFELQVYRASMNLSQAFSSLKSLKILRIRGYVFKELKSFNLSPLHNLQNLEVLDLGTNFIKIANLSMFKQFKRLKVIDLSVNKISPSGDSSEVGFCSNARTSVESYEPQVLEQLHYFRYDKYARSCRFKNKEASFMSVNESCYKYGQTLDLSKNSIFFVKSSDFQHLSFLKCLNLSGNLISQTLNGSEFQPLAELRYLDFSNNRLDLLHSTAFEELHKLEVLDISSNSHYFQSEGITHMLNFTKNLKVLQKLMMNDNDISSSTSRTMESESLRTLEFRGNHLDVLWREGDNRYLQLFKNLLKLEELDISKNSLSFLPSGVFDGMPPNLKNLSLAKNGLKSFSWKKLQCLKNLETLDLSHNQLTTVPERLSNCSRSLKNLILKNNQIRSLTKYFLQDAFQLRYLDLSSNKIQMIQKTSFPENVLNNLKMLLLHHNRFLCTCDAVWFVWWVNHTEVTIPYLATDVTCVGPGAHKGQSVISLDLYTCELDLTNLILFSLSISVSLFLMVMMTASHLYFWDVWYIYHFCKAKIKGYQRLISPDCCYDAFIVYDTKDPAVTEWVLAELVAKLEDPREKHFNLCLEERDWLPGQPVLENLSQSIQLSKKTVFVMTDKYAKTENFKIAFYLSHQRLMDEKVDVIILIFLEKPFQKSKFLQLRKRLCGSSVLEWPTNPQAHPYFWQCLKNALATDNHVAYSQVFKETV
# Method Description: HEK-Blue hTLR7 reporter assay (NF-kB-induced SEAP, Quanti-Blue)
# Type: cell-based
# Condition Info: Table 19, TLR7, drug-linkers with PEG shielding; read-out: EC50
pEC50: −log10 of the molar value.
Property: pEC50

CCCCOc1nc(N)c2[nH]c(=O)n(Cc3ccc(CN4CCC(CCNC(=O)[C@H](CCCCN)NC(=O)CON)CC4)cc3)c2n1 [AXC-947] | 6.47
CCCCOc1nc(N)c2[nH]c(=O)n(Cc3ccc(CN4CCC(CCNC(=O)[C@H](CCCCNC(=O)CON)NC(=O)CCOCCOCCOCCOCCOCCOCCOCCOC)CC4)cc3)c2n1 [AXC-937] | 6.34
CCCCOc1nc(N)c2[nH]c(=O)n(Cc3ccc(CN4CCC(CCNC(=O)[C@H](CCCCNC(=O)CCOCCOCCOCCOCCOCCOCCOCCOC)NC(=O)CON)CC4)cc3)c2n1 [AXC-950] | 6.35
